Provenance of the data: ChEMBL document CHEMBL1201862

Test system: A498
method notes: NCI tumour cell line growth inhibition, 48 h
The source made the active and inactive calls. Rule as the data show it: active = GI50 up to about 1.1 µM and inactive = higher. Residues, ends and D or L forms follow the SMILES beside them. *: point of attachment. Boc = CC(C)(C)OC(=O)*; OBn = c1ccc(CO*)cc1; Bn = c1ccc(C*)cc1
Classes used: True = active, False = inactive

| compound | class |
| --- | --- |
| CS/C(=N\c1ccc([N+](=O)[O-])cc1C#N)NC(=O)c1ccccc1 | False |
| Cc1c(C)c(S(=O)(=O)N(CCCN)OCCCN)c(C)c2c1OC(C)(C)CC2 | False |
| COC(=O)C1(C(C)C)CCc2c(OC)ccc(OC)c2C1=O (stereo unspecified) | False |
| Cc1ccc(NC(=O)CCc2nnc(S)[nH]2)cc1 | False |
| O=C1CC(O)c2c(Br)sc(Br)c21 (stereo unspecified) | False |
| O=C(CC1(O)C(=O)Nc2ccc([N+](=O)[O-])cc21)c1ccc2ccccc2c1 (stereo unspecified) | False |
| COc1cc(/C=C2/C(=O)N(C(=O)c3ccccc3O)N=C2C)ccc1O | True |
| Cc1c(C#N)c2nnn(-c3ccccc3)c(=O)n2c1-c1ccccc1 | False |
| Nc1cn(C2OC(CC(c3ccccc3)(c3ccccc3)c3ccccc3)C(O)C2O)c(=O)[nH]c1=O (stereo unspecified) | False |
| Cc1ccc(C(=O)c2[nH]c(NCc3ccccc3)c(C(=S)Nc3ccccc3)c2N)cc1 | False |
| CC(C)CC(NC(=O)C(Cc1ccccc1)NC(=O)C(COCc1ccccc1)NC(=O)OC(C)(C)C)C(=O)OCc1ccccc1 (stereo not drawn) (Boc-Ser(Bn)-Phe-Leu-OBn; configuration not given here) | False |
| OC(CCNC12CC3CC(CC(C3)C1)C2)c1ccccc1 (stereo unspecified) | False |
| CC(Cl)(/C=C/Cl)C(Cl)/C=C/C(Cl)(CCl)CBr (stereo unspecified) | False |
| CCOC(=O)Cn1c(C(F)(F)F)nc2nc(Cl)c(Cl)nc21 | False |
| NC1=CN(Cc2ccccc2)C2=N/C(=C\c3ccccc3)C(=O)N12 | False |
| COc1ccc([C@H]2CC(=O)C[C@H](c3ccc(OC)cc3)C23C(=O)c2ccccc2C3=O)cc1 | False |
| CCOc1cc(/C=N/c2ccc(Oc3ccc(Cl)cc3)c(Cl)c2)ccc1O | False |
| CCOC(=O)c1c(Br)c(-c2ccc(OC)cc2)c(Br)n1C | False |
| O=c1[nH]c2cc(C(F)(F)F)ccc2nc1Cc1ccccc1 | False |
| CCOP(=O)(OCC)c1c(C(=O)OC)cc(=O)[nH]c1-c1ccc(C)cc1 | False |
| CCOC1C=CC(=O)C(CO)O1 (stereo unspecified) | False |
| O=S(=O)(O)c1ccc([Se][Se]c2ccc(S(=O)(=O)O)cc2)cc1 | False |
| COc1nc2c(c(=O)n1C)N(C(C)=O)C1C(N2)OCC(OC(C)=O)C1OC(C)=O (stereo unspecified) | False |
| Cc1cc2c(cc1C)[n+]([O-])c(C(=O)/C=C/c1ccccc1Cl)c(C)[n+]2[O-] | False |
| O=C(Nc1nc2ncn(CC(COc3ccccc3)OC(=O)c3ccccc3)c2c(=O)[nH]1)c1ccccc1 (stereo unspecified) | False |
| O=S1(=O)OCCOS(=O)(=O)C1Br | False |
| COc1cc2c(c(O)c1OC)C(=O)C1CCC(=O)N1C2c1cccc2ccccc12 (stereo unspecified) | False |
| O=[N+]([O-])C(/C(Cl)=C(/Cl)N1CCOCC1)=C1\Nc2ccccc2O1 | False |
| O=C(Nc1ccc(Cl)cc1Cl)C1C(=O)N(c2ccc(Cl)cc2Cl)C(=O)/C1=N\Nc1ccc([N+](=O)[O-])cc1[N+](=O)[O-] (stereo unspecified) | False |
| c1ccc(C2CC(c3ccc4ccccc4c3)=Nc3ccccc3S2)cc1 (stereo unspecified) | False |
| CCCS(=O)(=O)/C(=C(\c1ccc(Br)cc1)S(=O)(=O)CCC)c1ccc(Br)cc1 | False |
| CSc1ccc(/C=C2\CN(C)C/C(=C\c3ccc(SC)cc3)C2=O)cc1 | False |
| O=C(N/C(=C\c1ccc([N+](=O)[O-])cc1)c1nc2ccccc2[nH]1)c1ccccc1 | False |
| Cc1cc(C)c2c(c1)CSCc1cc(C)cc(C)c1-2 | False |
| CCOC(=O)CCC(NC(=O)c1ccc(Nc2nc3ccccc3nc2C(=O)OCC)cc1)C(=O)OCC (stereo unspecified) | False |
| Nc1nc(N)c2nc(CNc3ccc(C(=O)NC(CCC(=O)O)C(=O)O)cc3F)cnc2n1 (stereo unspecified) | True |
| O=c1oc2ccccc2c(O)c1C(C/C(CCN1CCCC1)=N/O)c1ccccc1 (stereo unspecified) | False |
| Oc1ccc(-c2ccccc2)nn1 | False |
| O=C(CC(=O)N1N=C(N2c3ccccc3Sc3ccccc32)CC1c1ccccc1)Nc1ccc(Cl)cc1 (stereo unspecified) | False |
| CCCc1cc(COC)c(C#N)c(O)n1 | False |
| CCCCNc1nc(O)c2[nH]cnc2n1 | False |
